Source of measurements: the supplement of paper PMC8866396

// values below are reported cell viability
# Tested on: IL-6-GFP PC-9
# PROCEDURE_TEXT: cell viability (CCK-8 OD) relative to DMSO control (fraction of control); higher = more viable cells
# RUN_PARAMETERS: compound concentration: 10 uM; treatment time: 48 h
MEASURED_PARAMETER: cell viability

- O=C(O)CCCc1ccc(N(CCCl)CCCl)cc1: 0.97
- CCC1(O)C(=O)OCc2c1cc1n(c2=O)Cc2c-1nc1ccccc1c2CCNC(C)C.Cl (centres undefined) [Belotecan (CKD-602) hydrochloride]: 0.349
- C=CCN1CC(C(=O)N(CCCN(C)C)C(=O)NCC)CC2c3cccc4[nH]cc(c34)CC21 (centres undefined): 1.05
- CCC1=CC2CN3CCc4c([nH]c5ccccc45)C(C(=O)OC)(C2)C13 (centres undefined): 1.1
